system.tested: Protein-arginine deiminase type-1 (Homo sapiens) (UniProt Q9ULC6)
Sequence (Q9ULC6 whole entry, looked up): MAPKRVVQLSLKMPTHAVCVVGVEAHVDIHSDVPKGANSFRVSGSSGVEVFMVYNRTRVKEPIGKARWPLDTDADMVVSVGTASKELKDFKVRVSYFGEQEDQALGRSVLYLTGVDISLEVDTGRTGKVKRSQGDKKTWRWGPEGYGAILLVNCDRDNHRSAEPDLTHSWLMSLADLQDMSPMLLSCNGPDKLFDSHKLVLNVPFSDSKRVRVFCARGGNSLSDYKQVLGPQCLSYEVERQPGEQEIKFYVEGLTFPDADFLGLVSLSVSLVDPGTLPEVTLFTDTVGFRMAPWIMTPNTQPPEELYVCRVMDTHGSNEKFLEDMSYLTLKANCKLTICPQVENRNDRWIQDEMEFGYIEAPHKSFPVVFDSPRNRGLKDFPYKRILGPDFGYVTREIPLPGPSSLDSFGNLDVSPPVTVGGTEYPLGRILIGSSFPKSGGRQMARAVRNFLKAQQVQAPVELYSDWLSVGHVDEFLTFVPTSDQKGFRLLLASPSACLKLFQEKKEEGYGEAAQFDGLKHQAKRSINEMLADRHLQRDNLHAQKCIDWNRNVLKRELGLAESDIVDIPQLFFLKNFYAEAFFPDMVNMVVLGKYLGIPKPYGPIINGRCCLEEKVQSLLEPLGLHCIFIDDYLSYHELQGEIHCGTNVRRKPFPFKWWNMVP
assay.method.text: PAD1-4 inhibition by competitive ABPP, late-stage follow-up, orthogonal assay for PAD4 inhibitor project, biochemical, fluorescence, gel-based ABPP, HTS hits (AID 588487)
condition.details: recombinant PAD1-4, gel-based ABPP, RFA probe fluorescence; PAD1; at 10 µM; hits give high values
Tag: T if measured inhibition is not below 20%, F if it is.

Exercise: Decide: is the reported value of inhibition for N#CCCn1[nH]c(-c2ccccc2)cc1=O equal to or greater than 20%?
Solution: T

Exercise: Decide: is the reported value of inhibition for Cc1c(C(=O)N2CCCCC2)c(S(=O)(=O)N2CCN(c3ccc(Cl)cc3)CC2)c(C)n1C equal to or greater than 20%?
Solution: F

Exercise: Decide: is the reported value of inhibition for O=C(NCC1CCCO1)c1cc2c([nH]c3ccccc32)c(-c2ccc(F)cc2)n1 (stereo not given) equal to or greater than 20%?
Solution: T

Exercise: Decide: is the reported value of inhibition for COc1cccc(/C=C2/CN(C)CC3=C2OC(N)=C(C#N)C3c2cccc(OC)c2)c1 (stereo not given) equal to or greater than 20%?
Solution: F

***
Exercise: Decide: is the reported value of inhibition for Cc1ccc(CNC(=O)c2ccc(C)c(S(=O)(=O)N3CCCCC3)c2)cc1 equal to or greater than 20%?
Solution: T

Exercise: Decide: is the reported value of inhibition for Cn1c(N)c(C(=O)COC(=O)COc2ccc(Br)cc2)c(=O)n(C)c1=O equal to or greater than 20%?
Solution: F

Exercise: Decide: is the reported value of inhibition for CCOc1c(Br)cc(/C=C2\C(=O)N(CCC#N)N=C2C)cc1OC equal to or greater than 20%?
Solution: T

====

system.tested: Protein-arginine deiminase type-4 (Homo sapiens) (UniProt Q9UM07)
Sequence (Q9UM07 whole entry, looked up): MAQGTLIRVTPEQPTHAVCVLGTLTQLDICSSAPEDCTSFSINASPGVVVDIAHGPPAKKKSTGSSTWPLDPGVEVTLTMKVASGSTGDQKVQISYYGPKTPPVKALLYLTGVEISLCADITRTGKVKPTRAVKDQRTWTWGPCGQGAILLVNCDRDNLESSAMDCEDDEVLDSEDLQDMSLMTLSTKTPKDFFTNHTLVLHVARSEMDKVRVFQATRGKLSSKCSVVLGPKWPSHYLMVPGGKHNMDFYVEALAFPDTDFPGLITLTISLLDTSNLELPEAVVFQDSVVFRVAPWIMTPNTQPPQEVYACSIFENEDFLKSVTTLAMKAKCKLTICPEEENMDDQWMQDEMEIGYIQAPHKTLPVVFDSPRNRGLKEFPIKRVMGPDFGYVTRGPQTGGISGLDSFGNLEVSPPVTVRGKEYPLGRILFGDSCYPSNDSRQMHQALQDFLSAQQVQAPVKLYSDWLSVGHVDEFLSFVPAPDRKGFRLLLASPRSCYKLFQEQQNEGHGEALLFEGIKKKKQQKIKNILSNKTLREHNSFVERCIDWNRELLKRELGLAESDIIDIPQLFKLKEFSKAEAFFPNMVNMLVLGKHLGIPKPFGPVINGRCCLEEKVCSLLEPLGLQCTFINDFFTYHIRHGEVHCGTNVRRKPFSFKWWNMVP
assay.method.text: PAD1-4 inhibition by competitive ABPP, late-stage follow-up, orthogonal assay for PAD4 inhibitor project, biochemical, fluorescence, gel-based ABPP, HTS hits (AID 588487)
condition.details: recombinant PAD1-4, gel-based ABPP, RFA probe fluorescence; PAD4; at 10 µM
The source made the active and inactive calls.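 Rule for the calls: active = inhibition of at least 50% against any of four protein arginine deiminase enzymes; inactive = the rest.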
Outcome (select one): active, inactive

Record excerpt, results attached:
Exercise: # outcome recorded in this test, key = CS(=O)(=O)c1ccc(N)c(SSc2cc(S(C)(=O)=O)ccc2N)c1
Solution: inactive

Exercise: # outcome recorded in this test, key = COc1ccc(CCNC(=O)COC(=O)c2ccc(C)s2)cc1
Solution: active

Exercise: # outcome recorded in this test, key = COc1ccc(C2=CC(c3ccc(OC)c(OC)c3)NC(=S)N2)cc1 (configuration not stated)
Solution: inactive

Exercise: # outcome recorded in this test, key = CN(C)CCCNc1cn[nH]c(=O)c1Cl
Solution: inactive

Exercise: # outcome recorded in this test, key = Cc1cc(C)c(C#N)c(Sc2ccccc2N)n1
Solution: inactive

***
Exercise: # outcome recorded in this test, key = COc1ccc(/C=C2/C(=O)N(c3ccccc3)N=C2C)cc1
Solution: inactive

Exercise: # outcome recorded in this test, key = COc1cccc(NC(=O)C2c3cc(OC)c(OC)cc3C(=O)N(C)C2c2cccnc2)c1 (configuration not stated)
Solution: active

Exercise: # outcome recorded in this test, key = CCN(CC)S(=O)(=O)c1ccc(C)c(NS(=O)(=O)c2cc(/C=C/C(=O)O)cc(OC)c2OC)c1
Solution: inactive

Exercise: # outcome recorded in this test, key = O=C(CN1CCCCCC1)Nc1ccc(Br)cc1Br
Solution: inactive

Exercise: # outcome recorded in this test, key = COc1ccc(-c2cc(=O)[nH][nH]2)cc1
Solution: inactive

Exercise: # outcome recorded in this test, key = COc1ccc(-c2cc(=O)n(CCC#N)[nH]2)cc1
Solution: inactive

Exercise: # outcome recorded in this test, key = O=c1cc(-c2ccc(Cl)cc2)[nH][nH]1
Solution: inactive
